experiment-summary: folding stability dG unfold from trypsin proteolysis; higher = more stable
Task for the reader: assign each of the following sequences its reported folding stability dG unfold.
Entry format: amount then unit.

Provide one value: measured folding stability dG unfold of SAGGSAMITVDPGEKTVTVEIDLPVYKSYTYPGGETKAYPLELPEEEAKKVADEIAEAFKKKLEGESAGGSA [r15_365_JUSTAS]
-2.09 kJ/mol

Respond only with folding stability dG unfold recorded for SAGGPVVTTTTEYDPSTGKTYTVTTVPGSATQTTTYTLPDGTVLTTTTTVSPTTGGVTSTTPTTTPVPASAG [r5_587_JUSTAS]
5.44 kJ/mol

Output folding stability dG unfold of SAGGSAGGSASTTVTYVEIKVTNPNPPGTPVAEYLIPLSEITEEMIEKLEKEGGLKVEVTVVLSAGGSAGGS [r12_398_JUSTAS]
5.02 kJ/mol

Identify folding stability dG unfold associated with the sequence SAGDADEDPVLVVFVRTEERPLVVVRRVEPDEDPEEVAKELAAEIREKLGPDVEVFVEMVRREDAEKLFSAG [r5_583_TrMRF]
9.49 kJ/mol

Please report folding stability dG unfold for the following sequence: SSVTIPFKITDPNTTIAEIAERVRELLPESLGELSVTVTFSDGTTLNVTPGENLSKYYSPDDELTITVDAPS [r1_56_JUSTAS]
5.38 kJ/mol

Recall and state the measured folding stability dG unfold for SAGGSAGGSPYKEVPVPVRIHSPDGETHEFPGTIWKSPDDGMLEIRFPGNGKKHKIPLNDIQISAGGSAGGS [r12_772_TrROS] .
-6.29 kJ/mol

Return value of folding stability dG unfold for input SAGGSAGGSAGGPNPDMKFEIVTIKVPPDEVPKSEPIEDPDGHNFFLHFDGNTYTIWRMDSAGGSAGGSAGG [r7_97_TrROS] , no commentary.
4.13 kJ/mol

====

experiment-summary: folding stability dG unfold from chymotrypsin proteolysis; higher = more stable
Consider the following sequences; for each one, report its folding stability dG unfold.
// note: answer is a bare numeric in kcal/mol

Fill in folding stability dG unfold for record SAKIKIEKKEDGTIVIEVEAESEEEAEEAVKELVKELEKKGIKVEVVEVKIEKDPEKKGKYRVTIVIKKSAG [r14_119_TrROS_Hall]
4.39

Determine its reported folding stability dG unfold: SALSASELAKRVRDRIKELSNEEGYNVDIKVDVQPNEDGSVTVHIQFDSPWMIKRIKEKLPPGVNVEIMSAG [r14_491_TrROS]
2.42

Could you please provide reported folding stability dG unfold for SAGGSAGGSAGKPVLKLTVTLPNGLTVTVTINPDGEITVEIRPLPPPPPPVRTYSDEELKSAGGSAGGSAGG [r11_1015_TrROS_Hall] ? Thanks!
2.75

Please indicate folding stability dG unfold recorded for SAGGSAGGSAGGDSMSYDPKLVEEPVVEVFDGPVLVRVTEVTLPNGKKLTTTEELPPGLESAGGSAGGSAGG [r7_846_JUSTAS]
0.796

Give me measured folding stability dG unfold, please, for this sequence: SAGGSAGGSAGMTRTVTFTITDPNSSNTTTITVPTTSEQDVAAAKAALKAANPNVTITLTSAGGSAGGSAGG [r11_233_JUSTAS]
0.954

For SAGGSAMIEIEINGKKYKIEIVKVEEKDGKVKVKIKIKDKETGKEIEIEIEMPKEELEKLLKEILSSAGGSA [r15_944_TrROS_Hall] , write its folding stability dG unfold.
3.97

State, in one line, measured folding stability dG unfold of SAGGSAGGSAGMVTETTVSRLPDGTVTTTTTEYVVHPDGSLEPVRERTTTTPVPPDVPAASAGGSAGGSAGG [r11_440_JUSTAS]
1.14

====

experiment-summary: folding stability dG unfold (combined trypsin and chymotrypsin); higher = more stable
Label yes (1) when folding stability dG unfold >= 0.6 kcal/mol; otherwise no (0).

For this sequence, is measured folding stability dG unfold 0.6 kcal/mol or higher? SAGGSAGGMPSDTPFTITKITSVTLNDGRGTTKAVVSYPDGSLVTISSSELERLTKENPNLNLVSAGGSAGG [r6_78_JUSTAS]
no (0)

Textbook exercise: given the entry SAGGSAGGSAGGMEVYRNPETGTLVFLFELEDGSYVAVTINPDGSVEVRVFDKDGRWVPSAGGSAGGSAGGS [r10_299_TrROS_Hall] , state whether its folding stability dG unfold is greater than or equal to 0.6 kcal/mol.
yes (1)

Threshold query (folding stability dG unfold >= 0.6 kcal/mol) on SAGGKKKKIKPKEIKVRIIIEKDGKKIEIELSEEELEKIKKAPTLEEIIKELEKKGFKIVKIEIEKKSAGGS [r16_567_TrROS_Hall]
yes (1)

Is reported folding stability dG unfold greater than or equal to 0.6 kcal/mol here: SAKIEINPEGGQIEMDYELNGKKVKITIQMPPENGMFPVKIEPPDLGKPIEVPYPFNSVDDMLDWAAEASAG [r14_803_TrROS]
no (0)

folding stability dG unfold >= 0.6 kcal/mol for SAGGSAMKVVFYGDEASQKEIAEKAKKEGIEYEAYPGSREEILAYVKENYPDVKMIVYPEGKEYLISAGGSA [r15_712_JUSTAS] ?
no (0)

Given the entry SAGGSASMRTVTLTSTETLELKDPSGNLRVETTPVVVTVPVEVPDPNLPPPAVNSPVLTELLLRLLSAGGSA [r15_728_JUSTAS] , answer whether its folding stability dG unfold meets or surpasses 0.6 kcal/mol.
no (0)

Quick check: does SAGGMEIKEVKYDPEEGYLYIVVAAPPSVSPSEVVPAVVRAARELTGAEVEVEVDPETGYVVAKVPVSAGGS [r8_314_TrMRF] have folding stability dG unfold greater than or equal to 0.6 kcal/mol?
yes (1)

I'd appreciate it if you could say whether SAGGMITLTLPIPAEFLEKHGLDEAKKIVLEKAKEELKKLGLSEKYPIKKIEITPEPESLTATIVILSAGGS [r16_368_JUSTAS] has folding stability dG unfold at least equal to 0.6 kcal/mol.
yes (1)

Would you say SAGKKQEVTIMIPIRGPAQAREQVEEFANDFPIKPTRVHPNPNKNHYWVMVTMKVPGAKIKIMIWIPPSAGG [r19_262_TrROS] shows folding stability dG unfold at minimum 0.6 kcal/mol?
yes (1)

Decide: is the reported value of folding stability dG unfold for SAFRFPPGQTIMIKIEWRNPGNGKKRKWSIPIRVDPDKGRVITLDMLKSFLRKWGFNPEDVKIEDITVMSAG [r14_93_TrROS] equal to or greater than 0.6 kcal/mol?
yes (1)

Exam item: decide whether the reported folding stability dG unfold for SAGGSAGGMKTVTTPVYAVMPEEEAEALAKELEEKYPNVEIEVEREELPDGRVRVTITVTKPLGSAGGSAGG [r6_105_JUSTAS] is at least 0.6 kcal/mol.
yes (1)

Reported folding stability dG unfold reaches at least 0.6 kcal/mol for SAGGSAGGSAGMKTYTAEEIKNLPPGAKVIEVDGKLKIEIDGKIYTIEPGETVEIEPLEESAGGSAGGSAGG [r17_91_TrROS_Hall] ?
yes (1)

Determine whether this sequence has folding stability dG unfold no lower than 0.6 kcal/mol: SASLEELLAELPFDAEVETKDEEVVVKITNPENPDPNVSYTFNIPSSSGVPITVNVTEVEGGTKSVKALSAG [r14_401_JUSTAS]
no (0)

====

Please provide measured folding stability dG unfold for the entries that follow.
experiment-summary: folding stability dG unfold (combined trypsin and chymotrypsin); higher = more stable
Your answer should be a plain number; it is taken to be in kcal/mol.

Look up and state reported folding stability dG unfold for SAGGGKTVEVTIEVPGENAVVYIKVYDKDKPISVFPAEFIPPTGTATFTIDVPEDAEITAEVALPEEASAGG [r13_977_TrMRF]
0.687

Using the record for SSSTVTVTVTFPDGTVVTVDFTGSLAEVEAAVREWVRQYAAEQGLDPREVRVTITFADDGTTRERTLPLRSA [r9_1193_JUSTAS] , state its measured folding stability dG unfold.
2.04

Provide folding stability dG unfold value for the following sequence: SAGGSAGGSAGGKTYTLTFKAKIEVSEDDVVVITPPNGKKLVVPKENVKVHPDGTVTVTGSAGGSAGGSAGG [r7_684_TrMRF]
1.19

Read the entry SAGGSAGGSAGGKEIPLDEVKDIQPSNDKWYVVFPGKPQRFPPDDIPIPPGKPIRIYPLSAGGSAGGSAGGS [r10_665_TrROS] and write its reported folding stability dG unfold.
-0.154

Consider the sequence SAGGSAGGSAGWGLIITIEVEGEYDPANGQWSLNIEIEIQPIRIPPPKEPPPDDNPNNDDSAGGSAGGSAGG [r17_454_TrROS] . State its measured folding stability dG unfold.
3.86

Dear colleague, please send me the reported folding stability dG unfold for SAGGSAGGSASSVVTPISHPDGRTGTKVTLPNGTVIEFIFYPDGTIIEINHSNNTTTVTPLVSAGGSAGGSA [r18_285_JUSTAS] when you can.
1.53

Give reported folding stability dG unfold value for SKNKVEITIPMPYSQAREIARQLGLPPEKFKDPKDLVDWLKDLFPKDVKIRIQPMKPVTEEERRARQNGKSA [r9_74_TrROS]
1.12
